Can you tell me recombinant barcode read abundance (log10) for the items I'm about to list?
PROCEDURE TEXT: recombinant barcode read abundance after kanamycin selection (control-corrected) (log10(CPM+1)); higher = more efficient recombination; sequences stand for … in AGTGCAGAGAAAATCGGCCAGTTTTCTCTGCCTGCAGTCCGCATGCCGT…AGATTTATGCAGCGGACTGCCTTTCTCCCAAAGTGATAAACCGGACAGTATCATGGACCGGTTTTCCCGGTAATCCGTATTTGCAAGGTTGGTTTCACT; site = the 11-nt target
Numbers only.

Each sequence below has a recorded value; state its recombinant barcode read abundance (log10).
1. TCTAAGTCTTGGGTTCTAACCTGTTGCCA (site TCTAAGTCTGG)
2. CGAATGTCTTGGGTTCTAACCTGTTGCGT (site CGAATGTCTAC)

## Output
[0.695, 0.991]

Each sequence below has a recorded value; state its recombinant barcode read abundance (log10).
1. GGGCCCGCTTGGGTTCTAACCTGTTGCGG (site GGACGCGCTCC)
2. TAAAAGACTTGGGTTCTAACCTGTTGCCT (site TAAAAGGCTAG)
3. TAGCGCACTTGGGTTCTAACCTGTTGCGG (site TAGCACACTCC)

## Output
0.111
0.311
0.28

---

Can you tell me recombinant barcode read abundance (log10) for the items I'm about to list?
PROCEDURE TEXT: recombinant barcode read abundance after kanamycin selection (control-corrected) (log10(CPM+1)); higher = more efficient recombination; sequences stand for … in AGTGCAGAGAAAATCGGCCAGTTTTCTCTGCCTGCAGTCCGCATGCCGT…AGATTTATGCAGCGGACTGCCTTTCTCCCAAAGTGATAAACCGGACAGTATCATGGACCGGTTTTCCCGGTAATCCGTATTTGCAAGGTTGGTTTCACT; site = the 11-nt target
Numbers only.

Here are 3 sequences together with their reported answers.
CCAGGTACTTGGGTTCTAACCTGTTGCCT (site CCAGGTACTAG) = 0.701
ACAAGCCCTTGGGTTCTAACCTGTTGCCT (site AGAAGCCCTAG) = 0.0546
AGGAGCCCTTGGGTTCTAACCTGTTGCTC (site AGGAGCCCTCA) = 0.152

Each sequence below has a recorded value; state its recombinant barcode read abundance (log10).
1. ACTGATGCTTGGGTTCTAACCTGTTGCCT (site ACTGATACTAG)
2. CCTTGTTCTTGGGTTCTAACCTGTTGCCT (site GCTTGTTCTAG)
3. GGATAGCCTTGGGTTCTAACCTGTTGCCT (site GGATAGCCTAG)
4. GTCGCGCCTTGGGTTCTAACCTGTTGCCT (site GTCGCGTCTAG)

## Output
[1.08, 0.14, 1.71, 0.58]

Each sequence below has a recorded value; state its recombinant barcode read abundance (log10).
1. TGGTTGTCTTGGGTTCTAACCTGTTGCCT (site TGGTTGTCTAG)
2. GCTTCCACTTGGGTTCTAACCTGTTGCCT (site CCTTCCACTAG)
3. GTAAATGCTTGGGTTCTAACCTGTTGCCT (site GTAACTGCTAG)

## Output
[1.09, 0.24, 0.0397]

---

PROCEDURE TEXT: recombinant UMI read abundance after kanamycin selection (control-corrected) (log10(CPM+1)); higher = more efficient recombination; extreme values may be limits of the assay; sequences stand for … in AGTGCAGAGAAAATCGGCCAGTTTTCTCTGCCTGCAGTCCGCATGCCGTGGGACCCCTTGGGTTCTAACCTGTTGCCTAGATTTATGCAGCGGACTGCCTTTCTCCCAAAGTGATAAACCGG…AGGTTGGTTTCACT; site = the 11-nt donor
Can you tell me recombinant UMI read abundance (log10) for the items I'm about to list?
Answers are plain numbers.

Here are 3 sequences together with their reported answers.
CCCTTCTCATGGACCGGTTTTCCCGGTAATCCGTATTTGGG (site CCCTTCTCTAC) = 0
CTGCAAACATGGACCGGTTTTCCCGGTAATCCGTATTTGCA (site CTGAAAACTTG) = 0
TAACCTTCATGGACCGGTTTTCCCGGTAATCCGTATTTGGT (site TAGCCTTCTAC) = 0.244

Each sequence below has a recorded value; state its recombinant UMI read abundance (log10).
1. CTAAAATCATGGACCGGTTTTCCCGGTAATCCGTATTTGAC (site CTAAAATCTGT)
2. CTTCTCACATGGACCGGTTTTCCCGGTAATCCGTATTTGTA (site CTTCTCTCTTA)
3. GCGCTCACATGGACCGGTTTTCCCGGTAATCCGTATTTGAT (site GTGCTCACTAT)
4. AACACTGCATGGACCGGTTTTCCCGGTAATCCGTATTTGAG (site AACACTGCTCT)
5. CGTTTGGCATGGACCGGTTTTCCCGGTAATCCGTATTTGGT (site CGTTTGGCTAT)
6. GGATCATCATGGACCGGTTTTCCCGGTAATCCGTATTTGCC (site GGATCATCTGG)

## Output
1: 2.03; 2: 0; 3: 0.28; 4: 1.31; 5: 0.959; 6: 0.722
